Origin of the recorded values: patent US20190284293A1

# MEASURED_ON: T1, CD32b (FcgRIIb) (Homo sapiens, UniProt P31994)
# T1 sequence (P31994 43-310): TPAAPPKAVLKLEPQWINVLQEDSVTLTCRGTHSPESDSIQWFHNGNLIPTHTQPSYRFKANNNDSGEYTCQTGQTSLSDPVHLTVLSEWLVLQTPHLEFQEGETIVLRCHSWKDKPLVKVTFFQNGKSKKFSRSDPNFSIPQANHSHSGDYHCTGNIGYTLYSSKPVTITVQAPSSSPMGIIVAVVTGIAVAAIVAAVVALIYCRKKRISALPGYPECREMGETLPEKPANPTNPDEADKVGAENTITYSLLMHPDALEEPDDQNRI
# ASSAY_INFO: SPR, antibody binding to anti-his Fab captured FcgR-his (% Rmax)
# ASSAY_SETUP: 1 μM antibody
VALUE_TYPE: % Rmax hCD32b (%)
Answers are plain numbers, in %.

[[record]]
molecule = "mAb13-IgG2.5 (protein, left off: another chain or arm of the molecule) constant: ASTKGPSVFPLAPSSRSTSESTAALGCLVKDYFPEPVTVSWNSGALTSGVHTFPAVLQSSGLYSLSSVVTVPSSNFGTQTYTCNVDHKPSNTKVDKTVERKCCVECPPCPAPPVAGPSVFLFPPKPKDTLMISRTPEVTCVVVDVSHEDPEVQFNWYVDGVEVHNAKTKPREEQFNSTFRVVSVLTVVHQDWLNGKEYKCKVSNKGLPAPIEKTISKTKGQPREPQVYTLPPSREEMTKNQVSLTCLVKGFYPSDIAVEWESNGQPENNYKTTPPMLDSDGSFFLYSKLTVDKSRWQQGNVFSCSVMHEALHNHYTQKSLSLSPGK"
value_type = "% Rmax hCD32b"
value_unit = "%"
result_value = "−2"

[[record]]
molecule = "mAb12-IgG2.5 (protein, left off: another chain or arm of the molecule) constant: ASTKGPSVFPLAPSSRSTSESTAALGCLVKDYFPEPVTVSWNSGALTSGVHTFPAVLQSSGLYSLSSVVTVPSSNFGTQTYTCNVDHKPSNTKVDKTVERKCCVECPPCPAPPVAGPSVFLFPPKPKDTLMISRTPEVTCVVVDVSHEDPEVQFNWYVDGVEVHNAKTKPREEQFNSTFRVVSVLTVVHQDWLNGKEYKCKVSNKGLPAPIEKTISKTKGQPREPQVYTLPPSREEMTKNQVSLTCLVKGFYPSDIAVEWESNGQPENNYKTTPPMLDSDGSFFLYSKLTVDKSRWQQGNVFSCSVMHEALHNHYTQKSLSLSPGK"
value_type = "% Rmax hCD32b"
value_unit = "%"
result_value = 1

[[record]]
molecule = "mAb5-IgG2.3 (protein, left off: another chain or arm of the molecule) constant: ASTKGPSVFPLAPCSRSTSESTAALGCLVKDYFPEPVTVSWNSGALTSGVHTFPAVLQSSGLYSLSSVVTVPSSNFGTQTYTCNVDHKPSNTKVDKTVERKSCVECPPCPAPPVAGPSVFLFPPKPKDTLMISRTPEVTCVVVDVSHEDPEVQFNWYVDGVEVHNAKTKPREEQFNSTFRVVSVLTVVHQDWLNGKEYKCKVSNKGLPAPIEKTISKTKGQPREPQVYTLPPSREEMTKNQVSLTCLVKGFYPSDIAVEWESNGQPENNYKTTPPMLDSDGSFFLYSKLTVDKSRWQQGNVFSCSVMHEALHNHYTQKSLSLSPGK"
value_type = "% Rmax hCD32b"
value_unit = "%"
result_value = 4


We now examine a further molecule.
State the recorded % Rmax hCD32b for this entry: mAb10-IgG2.5 (protein, left off: another chain or arm of the molecule) constant: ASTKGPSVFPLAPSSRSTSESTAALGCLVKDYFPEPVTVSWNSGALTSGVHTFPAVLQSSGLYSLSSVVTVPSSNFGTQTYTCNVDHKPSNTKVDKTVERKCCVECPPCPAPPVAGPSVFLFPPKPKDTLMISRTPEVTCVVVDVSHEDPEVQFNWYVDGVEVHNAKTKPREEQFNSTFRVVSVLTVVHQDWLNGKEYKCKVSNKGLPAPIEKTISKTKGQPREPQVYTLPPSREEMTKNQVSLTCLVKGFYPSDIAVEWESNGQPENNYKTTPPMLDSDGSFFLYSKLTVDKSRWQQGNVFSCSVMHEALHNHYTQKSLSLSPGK
1
